Molecular target: T1, Kringle (Kg) (human, UniProt Q01973)
T1 construct: also called ROR1 Kringle domain alone, on transduced SUP-T1 cells
T1 sequence (Q01973 312-391 limits assumed): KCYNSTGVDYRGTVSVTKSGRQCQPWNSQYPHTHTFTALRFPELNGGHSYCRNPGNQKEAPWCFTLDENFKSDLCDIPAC
Assay: flow cytometry, transduced SUP-T1 cells, anti-human Fc-Dylight647

{"columns": ["binder", "binding result"],
 "data": [
  ["Clone V chimeric ROR1 antibody (antibody, V domains shown) VH: EVQLVESGGGLVQPGRSLKLSCAASGFSFSNYGMHWIRQAPTKGLEWVASISPTGGNTYYRDSVKGRFTISRDNTKSTLYLQMDSLRSEDTATYYCATDDLYYSGPFAYWGQGTLVTVSS VL: DIKMTQSPSFLSASVGDRVTINCKASQNITRFLNWYQQELGEAPTLLIYNTNNLQTGIPSRFSGSGSGTDFTLTISSLQPEDVATYFCLQHGSRPRTFGGGTKLELK", "no binding"],
  ["Clone J chimeric ROR1 antibody (antibody, V domains shown, also called J6) VH: DVKLVESGGGLLKPGGSLKLSCVASGFSFSKYWMHWVRQAPGQGLEWIAEIEYDGTETNYAPSIKDRFTISRDNAKNTLYLQMSNVRFEDAATYFCTTEEMHTTDYYYGFAYWGQGTLVTVSS VL: DIVLTQSPALAVSVGQRATISCRASQSVSISRYDFMHWYQQKPGQQPKLLIYRASNLASGIPARFSGSGSGTDFTLTINPVQADDIATYYCQQNRESPRTFGGGTKLELK", "no binding"],
  ["Clone F chimeric ROR1 antibody (antibody, V domains shown) VH: EVQLVESGGGLVQPGRSLKLSCAASGFIFSEHNMAWVRQAPKKGLEWVATISDDGRNTYYRDSMRGRFTISRENARSTLYLQLDSLRSEDTATYYCASHRYNLFDSWGQGVMVTVSS VL: DIQMTQSPSFLSASVGDRVTINCKASQNIDRYLNWYQQKLGEAPKRLLYNTNKLQTGIPSRFSGSGSATDFTLTISSLQPEDFATYFCLQYNSLPLTFGSGTKLEIK", "no binding"]
]}
